Tested on: HOP-92 NSCLC
Assay: NCI-60 one-dose screen, 48 h (100 = growth as untreated, 0 = no growth, -100 = all killed)
Conditions: 10 µM unless noted
About 83,000 compounds went through this panel and 20% of them were active in at least one assay; those are over-represented in the sample as a whole.
Note to self: growth under 70% means 1, ties and anything higher get -1.

| molecule | class.label |
| --- | --- |
| CC1(c2cc3cc(Cl)ccc3oc2=O)NC(=O)c2c(/C=C/C(=O)OC3CC4CCC3(C)C4(C)C)cccc2N1 (centres undefined) | 1 |
| Nc1cc2ccccc2c(=O)n1NC(=O)c1ccc(I)cc1 | -1 |
| CCOC(=O)COc1c(OC)c(OC)cc2oc(-c3cccc(C(=O)Nc4ccc(Cl)cc4)c3)cc(=O)c12 | 1 |
| COc1ccc(C(=O)/C=C/c2c(F)cccc2Cl)cc1S(N)(=O)=O | 1 |
| CN(C)c1ccnc(CNCCSC2(c3ccc(C(F)(F)F)cc3)c3ccccc3C=Cc3ccccc32)c1 | 1 |
| Cn1cc(-c2cc(N)n3nc(-c4cn(C)c5ccc(Cl)cc45)cc3n2)c2ccccc21 | -1 |
| CC(C)c1ccc2c(N)c(C(=O)Nc3ccc(C(F)(F)F)cn3)sc2n1 | 1 |
| COc1cc2c(c(OC)c1OC)C(=O)CC(c1cccc(NC(=O)[C@@H](N)CC(C)C)c1)O2 (some centres undefined) | -1 |
| Cc1ccc(C(SCCNCc2cc(N(C)C)ccn2)(c2ccccc2)c2ccccc2)cc1 | 1 |

* * *

Tested on: SF-295 CNS
Assay: NCI-60 one-dose screen, 48 h
Settings: 10 µM unless noted
This is part of a sample that, as a whole, favours compounds with a hit. Of some 83,000 tested, about 20% had one in any assay. Active and inactive are the calls of the source. Rule for the calls: active = growth percent below 10; inactive = the rest.
Outcome codes: active, inactive

| molecule | class.label |
| --- | --- |
| CC(=O)Nc1cccc(-c2nc3cc(-c4ccc(O)cc4)ccc3n2C)c1 | inactive |
| COc1cc2oc(-c3cccc(C(=O)Nc4ccc(Cl)cc4)c3)cc(=O)c2c(OCCNC(=O)[C@H](CCC(=O)OC(C)(C)C)NC(=O)OC(C)(C)C)c1OC | inactive |
| C=CC(=O)Nc1ccc(C)c(Oc2ccc(Cl)cc2)c1 | inactive |
| CCC(C)(C)c1ccc(OCCCCN2CCN(c3ccncc3)CC2)cc1 | active |
| N#Cc1c(-c2ccc(Br)cc2)nc2n[nH]c(-c3ccc(Br)cc3)c2c1-c1ccc(F)cc1 | inactive |
| COc1cc(CNC(=O)/C=C/c2ccc3c(c2)OCO3)ccc1OCc1cn(-c2cccc(C(F)(F)F)c2)nn1 | active |
| COc1ccc(C(=O)/C=C/c2ccccc2Cl)cc1S(N)(=O)=O | inactive |
| CN(C)CCn1c2ccccc2c2nc3cc(C(F)(F)F)ccc3nc21 | inactive |
| COc1ccc(/C=C2\C(=N)N=C(SCc3nc4ccccc4[nH]3)NC2=O)cc1 | inactive |
| Cc1cc(C)n(-c2ccc3nnc(-c4ccccc4)n3n2)n1 | inactive |
| Cc1ccc(C(=O)CSc2nc3ccc(C)cc3c(=O)n2-c2ccc(F)cc2)cc1 | inactive |
| Cc1nc(Nc2ccccn2)sc1C(=O)CC(SCC(=O)Nc1ccc(Cl)cc1)c1ccccc1F (centres undefined) | active |
| CC(=O)OC[C@@]1(C)C2CC[C@]3(C)C(CC=C4C5CC(C)(C)CC[C@]5(C(=O)Nc5ccc(Br)cc5)CC[C@]43C)[C@@]2(C)C[C@@H](OC(C)=O)[C@@H]1OC(C)=O (some centres undefined) | inactive |
| Clc1cccc(N/N=C/c2c[nH]c3ccc(Br)cc23)n1 | active |
| O=c1oc2ccc(Br)cc2cc1C1=CSc2nc3sc4c(c3c(=O)n2N=C1)CCCC4 | inactive |
| COCOc1cc2oc(C(=O)N[C@@H](Cc3ccccc3)C(O)C(=O)NCc3ccccc3)c(C)c(=O)c2cc1OCOC (some centres undefined) | inactive |
| COc1ccc(/C=C/c2nc3ccccc3n3c(-c4ccc(Cl)cc4)nnc23)cc1 | inactive |
| CN(C)CCn1c2ccccc2c2nc3ccc([N+](=O)[O-])cc3nc21 | active |
| CC(=O)Nc1ccc(-n2cnc3ccc(-c4ccc(O)cc4)cc32)cc1 | inactive |
